tested on: PfAP2-HC AP2 domain (GST-tagged); test: gcPBM binding intensity (ln(normalized median fluorescence intensity)); higher = stronger DNA binding
The full ranking holds about 25,000 sequences; the median of “ln(normalized median fluorescence intensity)” is about 9.7, and the highest 2% start at about 11. The sample holds the highest values, similar sequences and a random draw of the others, so the mix is not that of the screen.
Rule: 1.0 for gcPBM binding intensity (ln) not less than 10, 0.0 for anything less.

The examples below pair each entry with its known result.
{"SEQ TEXT": "TATAAAGACACGTACACACACTAAGTATATCCAATA [CACACA_site6855]", "CLASSIFICATION": 1.0}
{"SEQ TEXT": "CTAGCAAATACATACACACACACACCGATACATATA [CACACA_site9164]", "CLASSIFICATION": 1.0}

*Q* Quick check: does ATTTATTATATATAGTGTACGTTCTTAATTATAATT [XGTACX_site7480] have gcPBM binding intensity (ln) greater than or equal to 10?
*A* 0.0

---

Here the recorded gcPBM binding intensity (ln) is given for each entry.
tested on: PfAP2-HC AP2 domain (GST-tagged); assay: gcPBM binding intensity (ln(normalized median fluorescence intensity)); higher = stronger DNA binding
In all, about 25,000 sequences were measured (“ln(normalized median fluorescence intensity)”: median about 9.7, highest 2% from about 11 on). For the sample, the highest values were picked, then their nearest neighbours and some sequences at random.

See these solved cases before continuing.
{"SEQ TEXT": "AAAAAAAAAAAAAAGACACACATATATATATATATA [CACACA_site633]", "PROPERTY LABEL": "gcPBM binding intensity (ln)", "RESULT": 9.63}
{"SEQ TEXT": "TTTCTTTTTTTTTTTTTTTCTTTTTTTTTTTTTTTC [CACACA_negctrl_site1025]", "PROPERTY LABEL": "gcPBM binding intensity (ln)", "RESULT": 9.2}
{"SEQ TEXT": "AGTATATAAAATACTGTATCGATGGGGGAGGGCGCA [CACACA_negctrl_site1612]", "PROPERTY LABEL": "gcPBM binding intensity (ln)", "RESULT": 9.91}
{"SEQ TEXT": "TACCCACTAAAATACACACACACACCCACATATATA [CACACA_site6141]", "PROPERTY LABEL": "gcPBM binding intensity (ln)", "RESULT": 10.4}
{"SEQ TEXT": "TATGGTAAATACAACACACACACATATGTATTTATA [CACACA_site4666]", "PROPERTY LABEL": "gcPBM binding intensity (ln)", "RESULT": 10.3}
{"SEQ TEXT": "AGAAAAGAGAAATGGGCACACACACCCATATTATAT [CACACA_site8433]", "PROPERTY LABEL": "gcPBM binding intensity (ln)", "RESULT": 10.1}
{"SEQ TEXT": "ATATATGGGGCGCAGGAAAAGAGTTTTGGAAATAAA [CACACA_negctrl_site1265]", "PROPERTY LABEL": "gcPBM binding intensity (ln)", "RESULT": 9.63}
{"SEQ TEXT": "TTTTTTTTTTTTACATGTACTTATTTTAAATATAAA [XGTACX_site805]", "PROPERTY LABEL": "gcPBM binding intensity (ln)", "RESULT": 9.71}
{"SEQ TEXT": "CACAACATATATATATATATATATATATATATGTGT [CACACA_negctrl_site28]", "PROPERTY LABEL": "gcPBM binding intensity (ln)", "RESULT": 9.39}
{"SEQ TEXT": "AAAAGAGAAATGGGCACACACACACCCATTATATAT [CACACA_site1530]", "PROPERTY LABEL": "gcPBM binding intensity (ln)", "RESULT": 10.2}

*Q* Answer with the recorded gcPBM binding intensity (ln) of ATGTGTATATGTTAATGTACAAATTTTGAAAATGCC [XGTACX_site2685] only.
*A* 9.86

*Q* Answer with the recorded gcPBM binding intensity (ln) of ATAAAGAAATAAAGTTGTACATTATATATATATATA [XGTACX_site7729] only.
*A* 9.61

---

Here the recorded gcPBM binding intensity (ln) is given for each entry.
test system: PfAP2-HC AP2 domain (GST-tagged); experiment: gcPBM binding intensity (ln(normalized median fluorescence intensity)); higher = stronger DNA binding
Whole data set: some 25,000 sequences, median “ln(normalized median fluorescence intensity)” near 9.7, cut for the highest 2% near 11. The entries come from a sample that favours the highest values as a whole.
Answer with a number only.

{"SEQ TEXT": "ACCATATAAATAAACACACACACACGGATATAAATA [CACACA_site7157]", "gcPBM binding intensity (ln)": 10.6}
{"SEQ TEXT": "CATATACATAGACACACACACACATAAATAAATATA [CACACA_site6749]", "gcPBM binding intensity (ln)": 10.4}
{"SEQ TEXT": "AAAAAATACAGACACACACACACACGCATATAAATA [CACACA_site7644]", "gcPBM binding intensity (ln)": 10.8}
{"SEQ TEXT": "CAAGCACACGGACACACACACACACGCGCACGCACA [CACACA_site6307]", "gcPBM binding intensity (ln)": 11.3}

Next:
*Q* Answer with the recorded gcPBM binding intensity (ln) of AAAAAAAATAGACACACACACATACACATAAATATA [CACACA_site7742] only.
*A* 10.5

---

Here the recorded gcPBM binding intensity (ln) is given for each entry.
system: PfAP2-HC AP2 domain (GST-tagged); experiment: gcPBM binding intensity (ln(normalized median fluorescence intensity)); higher = stronger DNA binding
In all, about 25,000 sequences were measured (“ln(normalized median fluorescence intensity)”: median about 9.7, highest 2% from about 11 on). This excerpt belongs to a sample that is enriched for the highest values.

See these solved cases before continuing.
{"SEQ TEXT": "TATATAAATATACATTGTACTCAACATTTTCATTAA [XGTACX_site3690]", "gcPBM binding intensity (ln)": 9.62}
{"SEQ TEXT": "CATATACACGAACACACACACATATATATATATATA [CACACA_site4437]", "gcPBM binding intensity (ln)": 10.5}
{"SEQ TEXT": "TAAATAAAAAGACACACACACATATTTATATTTATA [CACACA_site7135]", "gcPBM binding intensity (ln)": 10.4}

*Q* Answer with the recorded gcPBM binding intensity (ln) of AAACTTGACGAACACACACACACATATATAAAAAAA [CACACA_site6494] only.
*A* 11.5

*Q* Answer with the recorded gcPBM binding intensity (ln) of TACAAACACCCATATACACACAAAAAAAAAATAAAA [CACACA_site5421] only.
*A* 9.94

*Q* Answer with the recorded gcPBM binding intensity (ln) of CAATATAAAAGACACACACACAAACATATATTTATA [CACACA_site7697] only.
*A* 11.3

---

test system: PfAP2-HC AP2 domain (GST-tagged); test: gcPBM binding intensity (ln(normalized median fluorescence intensity)); higher = stronger DNA binding
The full ranking holds about 25,000 sequences; the median of “ln(normalized median fluorescence intensity)” is about 9.7, and the highest 2% start at about 11. This excerpt belongs to a sample that is enriched for the highest values.
PROPERTY LABEL: gcPBM binding intensity (ln)
Answer with a number only.

See these solved cases before continuing.
{"SEQ TEXT": "TGTATGTTTATTTATCGTACATATATATATATATAT [XGTACX_site7315]", "gcPBM binding intensity (ln)": 10.1}
{"SEQ TEXT": "TTTATTTTTATGGTCACACATATTTTTAAAACTATA [CACACA_site4372]", "gcPBM binding intensity (ln)": 9.77}
{"SEQ TEXT": "TGGTAATACACATACACACACACATACACATATATA [CACACA_site7312]", "gcPBM binding intensity (ln)": 11.4}
{"SEQ TEXT": "GACAATAAAAAGAAAAGTACATATATAAATTAACCA [XGTACX_site7858]", "gcPBM binding intensity (ln)": 9.65}

*Q* Answer with the recorded gcPBM binding intensity (ln) of TCTTAATTTGTTATATGTACATAATATAATTGTATA [XGTACX_site5184] only.
*A* 9.55

*Q* Answer with the recorded gcPBM binding intensity (ln) of AAGGATATAACATACACACACACACCGATATATATA [CACACA_site6136] only.
*A* 10.6

Source listed as the supplement of paper PMC11417369.
